target: BCL2 WT (Homo sapiens (Human), UniProt P10415); assay: TR-FRET competitive binding assay, BCL2 WT; conditions: Ki determined from IC50, read-out: TR_FRET EKI_Bcl2 WT
Sequence (P10415 other isoform, or with tags, fused parts or gaps): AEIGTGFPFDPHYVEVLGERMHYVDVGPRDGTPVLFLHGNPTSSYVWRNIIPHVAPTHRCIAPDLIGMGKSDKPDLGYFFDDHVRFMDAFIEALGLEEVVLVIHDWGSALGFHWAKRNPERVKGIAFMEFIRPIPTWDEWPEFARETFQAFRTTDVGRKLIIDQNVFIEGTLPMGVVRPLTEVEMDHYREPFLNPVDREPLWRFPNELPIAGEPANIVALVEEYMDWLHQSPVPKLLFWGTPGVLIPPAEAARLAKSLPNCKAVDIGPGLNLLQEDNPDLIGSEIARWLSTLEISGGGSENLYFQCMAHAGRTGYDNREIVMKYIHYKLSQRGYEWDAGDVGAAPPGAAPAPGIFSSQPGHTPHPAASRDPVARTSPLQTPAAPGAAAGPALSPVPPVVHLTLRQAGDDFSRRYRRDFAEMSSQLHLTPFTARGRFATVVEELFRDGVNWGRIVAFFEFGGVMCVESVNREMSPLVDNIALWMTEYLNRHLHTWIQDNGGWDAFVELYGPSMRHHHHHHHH
quantity-name: pKi
Scale explanation: pKi corresponds to minus log10 of a concentration expressed in moles per litre.

-- ask Any idea what pKi was measured for COc1ncc(N(C(=O)c2cc(-c3cc4c(cc3C(=O)N3Cc5ccccc5C[C@H]3C)CN(C(=O)Cc3cccc(N5CC6(CN(C)C6)C5)c3)CC4)n(C)c2C)c2ccccc2)cc1F ?
-- reply 11.00

-- ask So what's the measured pKi for this one? Cc1c(C(=O)N(c2ccc(O)cc2)c2cc(C#N)n(C(F)F)c2C)cc(-c2cc3c(cc2C(=O)N2Cc4ccccc4C[C@H]2CN2CCCCC2)CN(C(=O)Cc2ccc(OCCN(C)C4CC4)cc2)CC3)n1C
-- reply 9.80

-- ask Tell me the measured pKi of Cc1c(N(C(=O)c2cc(-c3cc4c(cc3C(=O)N3Cc5ccccc5C[C@H]3C)CN(C(=O)Cc3ccc(OCCN(C)C5CC5)cc3)CC4)n3c2CCCC3)c2ccc(O)cc2)cc(C#N)n1C , please.
-- reply 9.59

* * *

target: BCLXL WT (Homo sapiens (Human)); assay: TR-FRET competitive binding assay, BCLXL WT; settings: ratio Ki BCLxL / Ki BCL2 WT
Sequence (Q07817 other isoform, or with tags, fused parts or gaps): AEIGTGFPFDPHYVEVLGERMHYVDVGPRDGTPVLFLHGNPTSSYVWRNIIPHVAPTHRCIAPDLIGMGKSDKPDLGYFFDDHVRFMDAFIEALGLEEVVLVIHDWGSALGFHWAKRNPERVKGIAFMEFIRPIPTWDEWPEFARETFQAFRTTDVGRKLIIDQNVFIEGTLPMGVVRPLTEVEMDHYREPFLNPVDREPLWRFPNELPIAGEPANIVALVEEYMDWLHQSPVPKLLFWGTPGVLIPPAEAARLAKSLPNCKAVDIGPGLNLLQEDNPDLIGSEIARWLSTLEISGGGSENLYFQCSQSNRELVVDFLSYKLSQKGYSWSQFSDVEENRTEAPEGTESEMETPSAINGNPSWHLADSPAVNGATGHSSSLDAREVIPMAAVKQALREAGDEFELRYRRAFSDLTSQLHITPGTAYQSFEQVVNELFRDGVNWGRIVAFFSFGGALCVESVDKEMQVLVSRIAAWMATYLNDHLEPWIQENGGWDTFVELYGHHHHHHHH
Label key: true (1) means TR_FRET EKI BCLxL/WT selectivty ratio under 30; false (0) means TR_FRET EKI BCLxL/WT selectivty ratio of 30 or more.

-- ask Lab note: confirm whether the reported TR_FRET EKI BCLxL/WT selectivty ratio for this compound is below 30, equality not counting. compound: COc1ccc(N(C(=O)c2cc(-c3cc4c(cc3C(=O)N3Cc5ccccc5C[C@H]3CN3CC5(CCC5)C3)CN(C(=O)Cc3ccc(OCCN5CCOCC5)cc3F)CC4)n(C)c2C)c2ccc(O)cc2)cc1C#N [Example 181]
-- reply false (0)

-- ask Quick check: does Cc1c(N(C(=O)c2cc(-c3cc4c(cc3C(=O)N3Cc5ccccc5C[C@H]3CN3CCCCC3)CN(C(=O)Cc3ccc(OCCN(C)CCF)cc3)CC4)n(C)c2C)c2ccc(O)cc2)cc(C#N)n1C [Example 116] have TR_FRET EKI BCLxL/WT selectivty ratio under 30?
-- reply false (0)

-- ask Decide: TR_FRET EKI BCLxL/WT selectivty ratio of Cc1c(N(C(=O)c2cc(-c3cc4c(cc3C(=O)N3Cc5ccccc5C[C@H]3C)CN(C(=O)Cc3ccc(CCN5CCC(F)(F)CC5)cc3)CC4)n(C)c2C)c2ccc(O)cc2)cc(C#N)n1C [Example 51] strictly below 30?
-- reply true (1)

-- ask Please determine if Cc1c(N(C(=O)c2cc(-c3cc4c(cc3C(=O)N3Cc5ccccc5C[C@H]3CN3CCCCC3)CN(C(=O)Cc3ccc(OCCN(C)CC5COC5)cc3)CC4)n(C)c2C)c2ccc(O)cc2)cc(C#N)n1C [Example 104] is below 30 in terms of TR_FRET EKI BCLxL/WT selectivty ratio.
-- reply false (0)

-- ask Is it true that TR_FRET EKI BCLxL/WT selectivty ratio reported for Cc1c(C(=O)N(c2ccc(O)cc2)c2cc(C#N)n(C(F)F)c2C)cc(-c2cc3c(cc2C(=O)N2Cc4ccccc4C[C@H]2CN2CCCCC2)CN(C(=O)Cc2ccc(OCCN4CCN(CCF)CC4)cc2F)CC3)n1C [Example 159] is less than 30?
-- reply false (0)

-- ask Does this compound meet the criterion TR_FRET EKI BCLxL/WT selectivty ratio < 30? Cc1c(N(C(=O)c2cc(-c3cc4c(cc3C(=O)N3Cc5ccccc5C[C@H]3C)CN(C(=O)Cc3ccc(OCCN5CCN(CC(F)(F)F)CC5)cc3)CC4)n(C)c2C)c2ccc(O)cc2)cc(C#N)n1C [Example 32]
-- reply true (1)

-- ask Below 30 on TR_FRET EKI BCLxL/WT selectivty ratio? Entry Cc1c(N(C(=O)c2cc(-c3cc4c(cc3C(=O)N3Cc5ccccc5C[C@H]3C)CN(C(=O)Cc3ccc(OCCN5CCOCC5)cc3)CC4)n(C)c2C)c2ccccc2)cnn1C(F)F [Example 215]
-- reply false (0)

-- ask Item Cc1c(C(=O)N(c2ccc(O)cc2)c2cc(C#N)n(C(F)F)c2C)cc(-c2cc3c(cc2C(=O)N2Cc4ccccc4C[C@H]2C)CN(C(=O)Cc2ccc(OCCN4CCOCC4)cc2)CC3)n1C [Example 95] : TR_FRET EKI BCLxL/WT selectivty ratio beneath 30, strictly?
-- reply true (1)

-- ask Given Cc1c(N(C(=O)c2cc(-c3cc4c(cc3C(=O)N3Cc5ccccc5C[C@H]3CN3CCCCC3)CN(C(=O)Cc3ccc(OCCN5CCC(F)CC5)cc3)CC4)n(C)c2C)c2ccc(O)cc2)cc(C#N)n1C [Example 76] , is recorded TR_FRET EKI BCLxL/WT selectivty ratio strictly lower than 30?
-- reply false (0)

-- ask Criterion: TR_FRET EKI BCLxL/WT selectivty ratio strictly below 30. Is it met by Cc1c(N(C(=O)c2cc(-c3cc4c(cc3C(=O)N3Cc5ccccc5C[C@H]3CN3CCCCC3)CN(C(=O)Cc3ccc(OCCN5CCOCC5)cc3F)CC4)n3ccccc23)c2ccc(O)cc2)cc(C#N)n1C [Example 136] ?
-- reply true (1)
